- System: SKBR3 breast cancer cells
- METHOD_DESCRIPTION: MTT growth inhibition assay (72 h)
- Format: cell-based, human
- RUN_CONDITIONS: Homo sapiens, SK-BR-3, SKBR3, Breast (HER2)
The label Yes is reserved for GI50 strictly under 300 nM; No covers values equal to or above it.

Is it true that GI50 reported for "O=c1c2cccc3cccc(c32)c2nc3cc(Cl)ccc3n12" is less than 300 nM?
Yes

Check "O=c1c2cccc3cccc(c32)c2nc3ccccc3n12" too.
Yes

Item: "O=c1c2ccccc2cc2[nH]c3ccccc3n12"
Yes

Could you do the same for O=C(O)c1ccc2c3c1cccc3c(=O)n1c3ccccc3nc21 [Compound 14, reference compound] , please?
No

Next molecule up: "O=c1c2cccc3cccc(c4n1Cc1ccccc1N=4)c32"
No

----------
- TEST_TARGET: AhR (Homo sapiens)
- Construct: This cell line stably expresses the secreted Lucia luciferase reporter gene under the control of a minimal promoter; host or cells: HT29-Lucia AhR reporter cells
- Sequence (P35869 11-848): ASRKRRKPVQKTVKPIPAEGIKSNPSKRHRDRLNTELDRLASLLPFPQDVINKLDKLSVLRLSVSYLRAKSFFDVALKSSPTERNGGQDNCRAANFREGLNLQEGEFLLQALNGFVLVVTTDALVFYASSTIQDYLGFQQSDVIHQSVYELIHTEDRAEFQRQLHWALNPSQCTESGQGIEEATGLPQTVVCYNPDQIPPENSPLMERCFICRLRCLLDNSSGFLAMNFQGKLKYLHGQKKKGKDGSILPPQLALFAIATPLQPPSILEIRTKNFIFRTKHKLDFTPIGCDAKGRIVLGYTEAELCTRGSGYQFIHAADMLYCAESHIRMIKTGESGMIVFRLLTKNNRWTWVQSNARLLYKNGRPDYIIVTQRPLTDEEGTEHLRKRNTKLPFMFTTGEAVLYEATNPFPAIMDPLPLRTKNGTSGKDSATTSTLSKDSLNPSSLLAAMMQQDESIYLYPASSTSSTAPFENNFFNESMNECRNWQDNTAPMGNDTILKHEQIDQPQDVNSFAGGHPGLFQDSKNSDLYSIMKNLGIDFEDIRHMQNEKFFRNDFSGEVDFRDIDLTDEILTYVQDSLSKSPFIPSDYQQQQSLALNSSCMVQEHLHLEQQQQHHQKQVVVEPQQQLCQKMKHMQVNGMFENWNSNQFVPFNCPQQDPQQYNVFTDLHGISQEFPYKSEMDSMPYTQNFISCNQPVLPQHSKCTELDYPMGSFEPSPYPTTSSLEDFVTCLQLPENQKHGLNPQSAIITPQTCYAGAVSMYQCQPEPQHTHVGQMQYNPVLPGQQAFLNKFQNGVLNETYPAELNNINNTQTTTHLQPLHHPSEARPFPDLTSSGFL
- METHOD_DESCRIPTION: AhR transcription reporter assay (HT29-Lucia AhR cells)
- Assay type: cell-based
- RUN_CONDITIONS: 1 µM, 24 h, relative to DMSO
MEASURE: AhR activation, Fold Reporter Induction (fold)
State just the number; it will be interpreted in fold.

Please provide the recorded AhR activation, Fold Reporter Induction for "O=c1c2cccc3cccc(c32)c2nc3ccc(Cl)cc3n12" , tested on AhR (Homo sapiens).
2.7

One more compound: "O=c1c2ccccc2cc2[nH]c3ccccc3n12"
1.2

Request: O=C(O)c1ccc2c3c1cccc3c(=O)n1c3ccccc3nc21 [Compound 14, reference compound]
1.5

Repeat with "O=c1c2cccc3cccc(c4n1Cc1ccccc1N=4)c32"
1.8

Lookup "O=c1c2cccc3cccc(c32)c2nc3cc(Cl)ccc3n12"
2.9

Same thing, different compound: "Nc1ccccc1N1C(=O)c2cccc3cccc(c23)C1=O"
1.8

Repeat for the following compound: "O=c1c2cccc3cccc(c32)c2nc3ccccc3n12"
3.1

----------
Assign GI50 to each entry below.
- Tested on: H460 (lung) cells
- METHOD_DESCRIPTION: MTT growth inhibition assay (72 h)
- Assay type: cell-based, human
- RUN_CONDITIONS: Homo sapiens, NCI-H460, H460, Lung (ER)
- Method: Each BBQ analogue, 2-14 was screened for their growth inhibition ability (GI50) in a broad panel of cancer cell lines and a non-cancer breast cell line (MCF10A), using the MTT growth inhibition assay (Table 1) ([Baker et al., 2021b]). […] Cells in logarithmic growth were transferred to 96-well plates. Cytotoxicity was determined by plating cells in duplicate in 100 μL medium at a density of 2,500–4,000 cells/well in 96 well plates. […]

So what's the measured GI50 for this one? O=C(O)c1ccc2c3c1cccc3c(=O)n1c3ccccc3nc21 [Compound 14, reference compound]
20 µM

How about "O=c1c2cccc3cccc(c32)c2nc3cc(Cl)ccc3n12" ?
8.2 µM

Would you mind doing "O=c1c2cccc3cccc(c4n1Cc1ccccc1N=4)c32" as well?
> 50 µM

Now this one: "O=c1c2cccc3cccc(c32)c2nc3ccccc3n12"
0.61 µM

Please answer likewise for "O=c1c2ccccc2cc2[nH]c3ccccc3n12"
> 50 µM

What would you report for "O=c1c2cccc3cccc(c32)c2nc3ccc(Cl)cc3n12" ?
7.2 µM

Values from paper PMC11224556
